The values you see were collected from patent US7659394B2.

measured-on: human norepinephrine transporter (Homo sapiens)
Construct: host or cells: HEK-293
Sequence (P23975 whole entry): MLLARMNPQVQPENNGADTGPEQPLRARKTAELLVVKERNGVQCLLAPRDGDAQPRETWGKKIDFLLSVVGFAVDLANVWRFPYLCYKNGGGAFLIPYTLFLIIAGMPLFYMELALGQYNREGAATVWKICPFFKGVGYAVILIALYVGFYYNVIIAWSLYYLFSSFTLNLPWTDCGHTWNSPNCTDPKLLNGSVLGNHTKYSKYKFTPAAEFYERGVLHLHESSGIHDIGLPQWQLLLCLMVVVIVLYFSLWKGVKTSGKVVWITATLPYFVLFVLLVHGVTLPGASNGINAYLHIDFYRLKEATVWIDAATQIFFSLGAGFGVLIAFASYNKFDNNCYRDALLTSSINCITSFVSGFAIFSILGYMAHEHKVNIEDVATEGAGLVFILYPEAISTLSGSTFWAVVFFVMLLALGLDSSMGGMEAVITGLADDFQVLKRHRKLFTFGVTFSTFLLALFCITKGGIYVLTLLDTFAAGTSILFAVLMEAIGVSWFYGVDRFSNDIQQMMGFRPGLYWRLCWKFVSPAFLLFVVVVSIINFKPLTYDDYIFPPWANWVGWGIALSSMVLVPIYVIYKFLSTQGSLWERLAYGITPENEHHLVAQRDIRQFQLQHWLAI
test-name: hNET receptor binding ([125I]-RTI-55 radioligand binding)
condition-description: membranes of HEK-293 cells transfected with human norepinephrine transporter, IC50 converted to Ki by Cheng-Prusoff, read-out: hNET (Ki)
value-kind: Ki (nM)

[[record]]
molecule_smiles = "CCOc1ccccc1O[C@H](c1cccnc1)[C@H]1CNCCO1"
value_kind = "Ki"
units_text = "nM"
numeric_result = 211

[[record]]
molecule_smiles = "Cc1ccc(-c2ncccc2O[C@@H](c2ccccc2)[C@@H]2CNCCO2)cc1"
value_kind = "Ki"
units_text = "nM"
numeric_result = 68

[[record]]
molecule_smiles = "CCc1ccnc([C@H](Oc2c(F)cccc2OC)[C@@H]2CNCCO2)c1"
value_kind = "Ki"
units_text = "nM"
numeric_result = 40

[[record]]
molecule_smiles = "c1ccc(Cc2ccccc2O[C@@H](c2ccccn2)[C@@H]2CNCCO2)cc1"
value_kind = "Ki"
units_text = "nM"
numeric_result = 11

[[record]]
molecule_smiles = "[O-][n+]1ccccc1O[C@@H](c1ccccc1)[C@@H]1CNCCO1"
value_kind = "Ki"
units_text = "nM"
numeric_result = 154

[[record]]
molecule_smiles = "Fc1ccc([C@H](Oc2c(F)cccc2F)[C@H]2CNCCO2)cc1"
value_kind = "Ki"
units_text = "nM"
numeric_result = 81

[[record]]
molecule_smiles = "Fc1ccccc1O[C@@H](c1ccccc1)[C@@H]1CNCCO1"
value_kind = "Ki"
units_text = "nM"
numeric_result = 7.3

[[record]]
molecule_smiles = "CCC[C@H](Oc1cccnc1OCC)[C@@H]1CNCCO1"
value_kind = "Ki"
units_text = "nM"
numeric_result = 6

[[record]]
molecule_smiles = "c1cnc(OC[C@H]2CNCCO2)c(OC[C@H]2CNCCO2)n1"
value_kind = "Ki"
units_text = "nM"
numeric_result = 9550


---

As a worked illustration, we turn to pKi data collected for human seritonin transporter (Homo sapiens).
pKi: −log10 of the molar value.
value-kind: pKi

[[record]]
molecule = "CCOC(=O)c1ccccc1O[C@@H](c1ccccc1)[C@@H]1CNCCO1 [Example 15]"
measured_on = "human seritonin transporter (Homo sapiens)"
value_kind = "pKi"
value_qualifier = "="
numeric_result = 5.42

[[record]]
molecule = "FC(F)(F)Oc1ccccc1O[C@@H](c1cccnc1)[C@H]1CNCCO1 [Example 26]"
measured_on = "human seritonin transporter (Homo sapiens)"
value_kind = "pKi"
value_qualifier = "="
numeric_result = 5.61

[[record]]
molecule = "Brc1ccccc1O[C@@H](c1ccccc1)[C@@H]1CNCCO1 [Example 4]"
measured_on = "human seritonin transporter (Homo sapiens)"
value_kind = "pKi"
value_qualifier = "="
numeric_result = 6.15

[[record]]
molecule = "CCCC(Oc1ccccc1OCC)[C@@H]1CNCCO1 (mixture of isomers) [Example 104]"
measured_on = "human seritonin transporter (Homo sapiens)"
value_kind = "pKi"
value_qualifier = "="
numeric_result = 5.01

[[record]]
molecule = "N#Cc1ccccc1O[C@@H](c1ccccn1)[C@@H]1CNCCO1 [Example 125]"
measured_on = "human seritonin transporter (Homo sapiens)"
value_kind = "pKi"
value_qualifier = "≤"
numeric_result = 5.00

[[record]]
molecule = "FCc1ccccc1OC(c1ccccc1)[C@@H]1CNCCO1 (stereo partly drawn) [Example 156]"
measured_on = "human seritonin transporter (Homo sapiens)"
value_kind = "pKi"
value_qualifier = "="
numeric_result = 6.10

[[record]]
molecule = "Fc1ccc(C(Oc2c(F)cccc2F)[C@H]2CNCCO2)cc1 (stereo partly drawn) [Example 111]"
measured_on = "human seritonin transporter (Homo sapiens)"
value_kind = "pKi"
value_qualifier = "="
numeric_result = 6.63

[[record]]
molecule = "CCOc1ccccc1OC(c1cccc[n+]1[O-])[C@@H]1CNCCO1 (stereo in doubt) [Example 100]"
measured_on = "human seritonin transporter (Homo sapiens)"
value_kind = "pKi"
value_qualifier = "≤"
numeric_result = 5.00

[[record]]
molecule = "Cc1ccc(C(C)C)c(O[C@@H](c2ccccn2)[C@@H]2CNCCO2)c1 [Example 130]"
measured_on = "human seritonin transporter (Homo sapiens)"
value_kind = "pKi"
value_qualifier = "="
numeric_result = 5.15

